meta.source: PubChem BioAssay AID330

Test system: P388 leukemia ip, CD2F1 mice, survival T/C
Experiment: NCI In Vivo Anticancer Drug Screen. Data for tumor model P388 Leukemia (intraperitoneal) in CD2F1 (CDF1) mice
Conditions: endpoint: median survival time; dose: 25.0 mg/kg/injection; schedule: Q04DX002 (ip); vehicle: saline with Tween-80
Inconclusive results and toxic doses are left out. How the source made its calls: active means survival T/C of 150% or more; inactive means T/C below 125% in these data.
Possible outcomes: active, inactive

| compound | answer-label |
| --- | --- |
| NN=C(c1ccc(Br)cc1)c1ccc(Br)cc1 | inactive |
| CCN1c2ccccc2CC(CCN(C(C)C)C(C)C)(C(N)=O)c2ccccc21 (centres undefined) | inactive |
| CCCC/C(=N\NC(N)=NC)c1ccccc1 | inactive |
| CN=C(N)NN=C(c1ccc(Cl)cc1)c1ccc(Cl)cc1 | active |
| O=C(CCCc1ccc(N2C(=O)C=CC2=O)cc1)ON1C(=O)CCC1=O | inactive |
| CCOC(=O)C1C(C(=O)c2ccc(Br)cc2)C12C(=O)N(C)c1ccccc12 (centres undefined) | inactive |
| CN=C(N)N/N=C(\c1ccc(F)cc1)c1ccccc1Cl | inactive |
| NC(=Nc1ccc(Cl)cc1)N/N=C/c1ccc2c(c1)Cc1ccccc1-2 | inactive |
| CCCCN=C(N)N/N=C(\C)c1ccc2c(c1)Cc1ccccc1-2 | inactive |

====

Tested on: P388 leukemia ip, CD2F1 mice, survival T/C
Assay: NCI In Vivo Anticancer Drug Screen. Data for tumor model P388 Leukemia (intraperitoneal) in CD2F1 (CDF1) mice
Conditions: endpoint: median survival time; dose: 50.0 mg/kg/injection; schedule: Q01DX009 (ip); vehicle: Klucel (hydroxypropylcellulose) (HPC); higher = longer survival
Inconclusive results and toxic doses are left out.
// reported T/C per item

| compound | T/C |
| --- | --- |
| CC1CC(C)NC(N=S(=O)(O)c2ccc(N)cc2)[N-]1.[Ag+] (stereo unspecified) | 106 % of control |
| CCCCN(CCCC)C(=S)C(O)(c1ccccc1)c1ccccc1 | 95 % of control |
| c1ccc(-c2nnc(-c3ccccn3)nn2)nc1 | 99 % of control |
| O=c1c2cc3ccccc3cc2c(=O)n2n1CC=CC2 | 97 % of control |
| O=C(O)c1cc(-c2ccccc2Cl)nc2cc3ccccc3cc12 | 111 % of control |
| CCOC(=O)c1ccc(NC(=O)Nc2nnc(C)c(C)n2)cc1 | 92 % of control |
| CC1CCC2(NC1)OC1CC3C4CCC5CC(N)CCC5(C)C4CCC3(C)C1C2C (stereo unspecified) | 110 % of control |
| O=[N+]([O-])c1cccc(C2CC(c3ccccc3)=Nc3ccccc3S2)c1 (stereo unspecified) | 107 % of control |
| CN1C(=O)C(=O)N(Cc2ccc(CN3C(=O)C(=O)N(C)C3=O)cc2)C1=O | 101 % of control |
| CNc1n[nH]c(-c2ccccc2)n1 | 101 % of control |
| O=[N+]([O-])c1cccc2ccc(N/N=C/c3ccccc3O)nc12 | 94 % of control |
| O=C(CC1CCCC/C1=N\O)NO (stereo unspecified) | 100 % of control |
| C1Cc2c3c(c4c(c2C1)CCC4)CCC3 | 95 % of control |
| CN(C)c1ccc(C=Nc2ccc3ccc4cccc5ccc2c3c45)cc1 | 101 % of control |
| c1ccc(-c2cc(CNc3nc4ccccc4s3)on2)cc1 | 99 % of control |
| O=C1CCC2CC1CCC2=O | 109 % of control |
